These measurements were taken from ChEMBL document CHEMBL4837261.

# assayRemarks: Volume of distribution at steady state in ICR (CD-1) mouse at 10 mg/kg, iv measured up to 1440 mins by LC-MS/MS analysis
# Format: ADME, organism-based
# conditionsUsed: in vivo, read-out: Vdss
quantityKind: Vd (L/kg)

smilesrecord=COc1ccc2ncc(F)c(C[C@H](O)[C@H]3OC[C@H](NCc4cc5c(nn4)OCCS5)CO3)c2n1 readoutunits=L/kg reported=1

====

Measured inhibition at 10 µM, listed per entry for reference.
# systemUnderTest: CYP2D6 (Homo sapiens, UniProt P10635)
# Sequence (P10635 whole entry): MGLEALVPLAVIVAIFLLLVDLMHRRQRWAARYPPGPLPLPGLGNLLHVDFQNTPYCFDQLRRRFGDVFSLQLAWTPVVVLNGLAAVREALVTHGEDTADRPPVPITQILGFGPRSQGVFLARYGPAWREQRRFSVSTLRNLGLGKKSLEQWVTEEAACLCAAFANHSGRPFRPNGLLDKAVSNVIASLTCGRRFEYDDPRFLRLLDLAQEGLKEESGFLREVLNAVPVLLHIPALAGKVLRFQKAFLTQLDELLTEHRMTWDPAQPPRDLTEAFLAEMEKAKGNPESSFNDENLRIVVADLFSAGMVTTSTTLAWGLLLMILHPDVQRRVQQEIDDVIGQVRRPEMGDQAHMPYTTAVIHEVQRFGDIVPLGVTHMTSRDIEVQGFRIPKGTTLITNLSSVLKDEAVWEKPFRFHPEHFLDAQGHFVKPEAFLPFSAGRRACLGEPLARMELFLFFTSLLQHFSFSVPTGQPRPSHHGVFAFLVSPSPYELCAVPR
# assayRemarks: Inhibition of CYP2D6 (unknown origin) at 10 uM relative to control
# Type: ADME
quantityKind: inhibition at 10 µM

compound=COc1ccc2ncc(F)c(C[C@H](O)[C@H]3OC[C@H](NCc4cc5c(nn4)OCCS5)CO3)c2n1 reported="> 50%"
compound="COc1ccc2ncc(F)c(C(O)C[C@H]3OC[C@H](NCc4cc5c(nn4)OCCS5)CO3)c2n1 (mixture of isomers)" reported="> 50%"
